Data provenance: patent US11578074B2

study.system: CYP2D6 (Homo sapiens, UniProt P10635)
Construct: A system of 100 μL human liver microsomes; from tissue; host or cells: human liver microsomes
Sequence (P10635 whole entry): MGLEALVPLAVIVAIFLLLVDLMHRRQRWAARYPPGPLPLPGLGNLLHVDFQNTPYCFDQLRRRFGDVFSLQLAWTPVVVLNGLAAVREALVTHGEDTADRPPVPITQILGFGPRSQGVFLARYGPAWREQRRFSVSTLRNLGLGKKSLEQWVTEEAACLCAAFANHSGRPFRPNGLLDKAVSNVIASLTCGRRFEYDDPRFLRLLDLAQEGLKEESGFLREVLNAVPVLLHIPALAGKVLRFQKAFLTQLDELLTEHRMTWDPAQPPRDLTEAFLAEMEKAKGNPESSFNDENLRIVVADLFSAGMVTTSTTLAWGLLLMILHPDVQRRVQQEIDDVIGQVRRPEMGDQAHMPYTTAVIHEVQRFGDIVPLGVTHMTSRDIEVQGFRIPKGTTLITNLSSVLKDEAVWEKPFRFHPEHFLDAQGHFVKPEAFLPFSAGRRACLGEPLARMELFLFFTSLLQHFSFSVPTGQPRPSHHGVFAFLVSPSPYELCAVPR
assay.remarks: Direct inhibition (DI) of CYP2D6 in human liver microsomes
Format: in vitro ADME
condition.parameters: probe Dextromethorphan, human liver microsomes 0.2 mg/mL, 10 μM compound, read-out: Direct inhibition (DI) 2D6 (Dextromethorphan)
measured.property: inhibition at 20 min, 10 µM (%)

molecule	inhibition at 20 min, 10 µM / %
CCOc1cc2ncnc(Nc3ccc(Oc4ccn5ncnc5c4)c(C)c3)c2cc1NC(=O)/C(F)=C/[C@H]1CCCN1C	39
Cc1cc(Nc2ncnc3ccc(NC(=O)/C(F)=C\[C@H]4CCCN4C)cc23)ccc1Oc1ccn2ncnc2c1	16
C=CC(=O)NC1CCC=C(c2ccc3ncnc(Nc4ccc(Oc5cc6nncn6cn5)c(C)c4)c3c2)C1 (stereo not drawn)	25
CN1CCC[C@@H]1/C=C/C(=O)Nc1ccc2ncnc(Nc3ccc(Oc4ccn5ncnc5c4)c(Cl)c3)c2c1	85

1. Cc1cc(Nc2c(C#N)cnc3ccc(NC(=O)/C=C/[C@H]4CCCN4C)cc23)ccc1Oc1cc2nncn2cn1
2. CCOc1cc2ncc(C#N)c(Nc3ccc(Oc4cc5nncn5cn4)c(C)c3)c2cc1NC(=O)/C=C/[C@H]1CCCN1C
Request: Sort 1 and 2 by inhibition at 20 min, 10 µM descending and give the first. Label of pick, please.
Result: 1
(1: 13%, 2: 3%)

###

study.system: CYP2C9 (Homo sapiens)
Construct: A system of 100 μL human liver microsomes; from tissue; host or cells: human liver microsomes
Sequence (P11712 whole entry): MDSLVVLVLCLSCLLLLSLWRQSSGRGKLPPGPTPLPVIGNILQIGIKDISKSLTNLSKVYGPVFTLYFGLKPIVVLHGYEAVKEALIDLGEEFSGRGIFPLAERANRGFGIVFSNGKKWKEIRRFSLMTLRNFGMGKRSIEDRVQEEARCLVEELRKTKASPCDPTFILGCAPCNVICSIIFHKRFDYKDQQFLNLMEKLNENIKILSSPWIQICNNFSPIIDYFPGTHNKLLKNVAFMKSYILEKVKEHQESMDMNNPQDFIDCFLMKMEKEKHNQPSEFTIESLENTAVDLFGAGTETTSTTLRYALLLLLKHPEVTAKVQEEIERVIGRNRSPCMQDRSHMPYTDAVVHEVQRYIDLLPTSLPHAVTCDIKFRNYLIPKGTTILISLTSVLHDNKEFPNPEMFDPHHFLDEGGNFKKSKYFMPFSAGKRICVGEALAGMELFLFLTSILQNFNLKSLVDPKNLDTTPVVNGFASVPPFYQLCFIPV
assay.remarks: Direct inhibition (DI) of CYP2C9 in human liver microsomes
Assay type: in vitro ADME
condition.parameters: probe Diclofenac, human liver microsomes 0.2 mg/mL, 10 μM compound, read-out: Direct inhibition (DI) 2C9 (Diclofenac)
measured.property: inhibition at 20 min, 10 µM (%)

Some compounds with recorded inhibition at 20 min, 10 µM:
compound	observed
CCOc1cc2ncnc(Nc3ccc(Oc4ccn5ncnc5c4)c(C)c3)c2cc1NC(=O)/C(F)=C/[C@@H]1CCCN1C	34
C=CC(=O)N[C@H]1CCCN(c2ccc3ncnc(Nc4ccc(Oc5cc6nncn6cn5)c(C)c4)c3c2)C1	49
CCOc1cc2ncnc(Nc3ccc(Oc4cc5nncn5cn4)c(C)c3)c2cc1NC(=O)/C=C/[C@H]1CCCN1C	4
CCOc1cc2ncnc(Nc3ccc(Oc4ccn5ncnc5c4)c(C)c3)c2cc1NC(=O)/C=C/[C@H]1CCCN1C	10
Cc1cc(Nc2ncnc3ccc(NC(=O)/C=C/[C@H]4CCCN4C)cc23)ccc1Oc1ccc2nccn2c1	48
CCOc1cc2ncc(C#N)c(Nc3ccc(Oc4cc5nncn5cn4)c(C)c3)c2cc1NC(=O)/C=C/[C@H]1CCCN1	66
CCOc1cc2ncc(C#N)c(Nc3ccc(Oc4cc5nncn5cn4)c(C)c3)c2cc1NC(=O)/C=C/[C@H]1CCCN1C	17
C=C(F)C(=O)N1CC=C(c2ccc3ncnc(Nc4ccc(Oc5cc6nncn6cn5)c(C)c4)c3c2)CC1	55
CN1CCC[C@@H]1/C=C/C(=O)Nc1ccc2ncnc(Nc3ccc(Oc4ccn5ncnc5c4)c(Cl)c3)c2c1	19
C=CC(=O)N[C@@H]1CCCN(c2ccc3ncnc(Nc4ccc(Oc5cc6nncn6cn5)c(C)c4)c3c2)C1	26

I. Cc1cc(Nc2c(C#N)cnc3ccc(NC(=O)/C=C/[C@H]4CCCN4C)cc23)ccc1Oc1cc2nncn2cn1
II. CCOc1cc2ncnc(Nc3ccc(Oc4cc5nncn5cn4)c(C)c3)c2cc1NC(=O)/C=C/[C@H]1CCCN1
III. C=CC(=O)N1CCCC(Nc2ccc3ncnc(Nc4ccc(Oc5cc6nncn6cn5)c(C)c4)c3c2)C1 (stereo in doubt)
IV. Cc1cc(Nc2ncnc3ccc(NC(=O)/C=C/[C@H]4CCCN4C)cc23)ccc1Oc1ccn2ncnc2n1
Request: Task field, ranking: reported inhibition at 20 min, 10 µM, descending order. Your answer should be the labels, listed in the requested order.
Result: III, II, IV, I
(III: 17%, II: 8%, IV: 5%, I: 1%)

A. C=CC(=O)N1CCC(c2ccc3ncnc(Nc4ccc(Oc5cc6nncn6cn5)c(C)c4)c3c2)CC1
B. CCOc1cc2ncnc(Nc3ccc(Oc4ccn5ncnc5c4)c(C)c3)c2cc1NC(=O)/C(F)=C\[C@H]1CCCN1C
Request: Look at A and B . Which one has the lower recorded inhibition at 20 min, 10 µM number? Label of pick, please.
Result: B

P. CCOc1cc2ncnc(Nc3ccc(Oc4ccn5ncnc5c4)c(C)c3)c2cc1NC(=O)/C(F)=C\[C@@H]1CCCN1C
Q. Cc1cc(Nc2ncnc3ccc(NC(=O)/C=C/[C@H]4CCCN4C)cc23)ccc1Oc1ccn2ccnc2c1
R. C=CC(=O)NC1CCC=C(c2ccc3ncnc(Nc4ccc(Oc5cc6nncn6cn5)c(C)c4)c3c2)C1 (stereo not shown)
Request: Task field, ranking: reported inhibition at 20 min, 10 µM, descending order. Your answer should be the labels, listed in the requested order.
Result: R, P, Q
(R: 74%, P: 21%, Q: 9%)
